Data origin, for the record: patent US10131928B2

Catalogue of IC50 readings, one per entry.
Target: TbINO1 (Trypanosoma brucei brucei, UniProt Q5QQ46)
Construct: Hexa-His (N); made in house; host or cells: E. coli BL21 Rosetta (DE3)
Sequence (Q5QQ46 whole entry): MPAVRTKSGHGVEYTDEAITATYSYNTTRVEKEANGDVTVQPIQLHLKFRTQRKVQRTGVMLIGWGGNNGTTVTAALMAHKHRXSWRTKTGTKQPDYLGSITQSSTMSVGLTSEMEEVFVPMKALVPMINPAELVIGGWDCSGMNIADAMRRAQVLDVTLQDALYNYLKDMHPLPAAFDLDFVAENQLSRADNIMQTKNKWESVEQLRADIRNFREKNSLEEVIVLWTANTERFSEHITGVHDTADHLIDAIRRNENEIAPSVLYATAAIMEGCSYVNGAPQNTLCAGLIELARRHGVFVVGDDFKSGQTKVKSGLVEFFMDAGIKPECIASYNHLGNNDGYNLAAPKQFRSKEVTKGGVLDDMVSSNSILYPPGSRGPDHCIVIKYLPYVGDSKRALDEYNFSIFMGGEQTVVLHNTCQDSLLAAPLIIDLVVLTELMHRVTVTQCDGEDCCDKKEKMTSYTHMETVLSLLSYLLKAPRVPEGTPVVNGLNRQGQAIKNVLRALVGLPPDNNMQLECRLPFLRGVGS
Assay: biochemical
Format: biochemical
Settings: Table 2; inhibitor pre-incubated with recombinant TbINO1; glucose-6-phosphate as substrate; read-out: IC50 INO1 activity

{"COMPOUND": "COC1O[C@H](COP(=O)(O)O)[C@@H](O)[C@H](O)[C@H]1O (stereo partly drawn)", "IC50": "2.5 mM"}
{"COMPOUND": "O=P(O)(O)OCC(O)CO (stereo not drawn) [Glycerophosphate]", "IC50": "> 10 mM"}
{"COMPOUND": "CC(=O)N[C@H]1C(OP(=O)(O)O)O[C@H](CO)[C@@H](O)[C@@H]1O (stereo partly drawn) [Acetylglucosamine-1-P, acetylglucosamine-1-phosphate]", "IC50": "> 10 mM"}
{"COMPOUND": "O=P(O)(O)O[C@H]1O[C@H](CO)[C@@H](O)[C@H](O)[C@H]1O [Glucose-1-P, glucose-1-phosphate]", "IC50": "> 10 mM"}
{"COMPOUND": "CC(=O)N[C@H]1C(O)O[C@H](COP(=O)(O)O)[C@@H](O)[C@@H]1O (stereo partly drawn) [Acetylglucosamine-6-P, acetylglucosamine-6-phosphate]", "IC50": "> 10 mM"}
{"COMPOUND": "O=P(O)(O)OC[C@H]1OC(O)[C@H](F)[C@@H](O)[C@@H]1O (stereo partly drawn)", "IC50": "1 mM"}
